# Test system: SK-MEL-2 melanoma
# assay comment: NCI-60 one-dose screen, 48 h (100 = growth as untreated, 0 = no growth, -100 = all killed)
# assay context: 10 µM unless noted
Compounds without any hit were thinned out: in the full panel of roughly 83,000, 20% have a hit.
Measured growth of individual entries

- compound: "COc1ccc(/C=C2/C(=O)Nc3cc(Cl)c(-c4csc(N)n4)cc32)cc1"
  growth (%): 35
- compound: "O=[N+]([O-])c1ccccc1NC1c2ccccc2Oc2ccccc21"
  growth (%): 57
- compound: "CC1(C)N=C(N)N=C(N)N1c1ccc(OCC(=O)Nc2ccccc2)c(Cl)c1"
  growth (%): 47.5
- compound: "COc1ccc2c(c1)OC(N(C(C)=O)C(C)=O)=C(C#N)C2c1ccc(F)cc1 (centres undefined)"
  growth (%): 25.1

###

# Test system: OVCAR-4 ovarian
# assay comment: NCI-60 one-dose screen, 48 h (100 = growth as untreated, 0 = no growth, -100 = all killed)
# assay context: 10 µM unless noted
The panel holds about 83,000 compounds, 20% with a hit somewhere; the sample as a whole holds those more often.
Entries annotated with measured growth
experimental readout: growth (%)

- compound: "O=C(O)c1ccc(-n2cc(/C=N/Nc3ccccc3F)c(-c3ccc(O)cc3)n2)cc1"
  experimental readout: "growth"
  unit tag: "%"
  value: 94.8
- compound: "COCCNC(C(=O)c1ccccc1)c1ccccc1 (stereo unspecified)"
  experimental readout: "growth"
  unit tag: "%"
  value: 105
- compound: "CCc1c(C)c2cc3nc(NCc4ccccc4)oc3c(C)c2oc1=O"
  experimental readout: "growth"
  unit tag: "%"
  value: 33.9
- compound: "CC(C)(C)NCC(O)COc1c(Br)c(Br)c(Br)c2c1OC(C)(C)C2 (stereo unspecified)"
  experimental readout: "growth"
  unit tag: "%"
  value: 15.3
- compound: "O=C(Nc1ccc(-n2ccc3c(NC(=O)c4ccccc4)nccc32)cc1)Nc1cccc(C(F)(F)F)c1"
  experimental readout: "growth"
  unit tag: "%"
  value: 26
- compound: "NS(=O)(=O)c1ccc(-n2nc(-c3ccc(Cl)cc3)ccc2=O)cc1"
  experimental readout: "growth"
  unit tag: "%"
  value: 100
- compound: "CC[C@@]1(O)C(=O)OCc2c1cc1n(c2=O)Cc2c-1nc1ccccc1c2/C=N/OC(C)(C)C"
  experimental readout: "growth"
  unit tag: "%"
  value: 30.1
- compound: "O=C(Nc1ccc(-n2cc(-c3ccncc3)c(-c3ccc(O)c(Cl)c3)n2)cc1)Nc1cccc(Cl)c1Cl"
  experimental readout: "growth"
  unit tag: "%"
  value: 78.7
- compound: "Cc1nc(N)nc(SCc2ccccc2)c1Br"
  experimental readout: "growth"
  unit tag: "%"
  value: 86.2
- compound: "Cc1cn(C2CC(F)C(CO)O2)c(=O)[nH]c1=O (stereo unspecified)"
  experimental readout: "growth"
  unit tag: "%"
  value: 93.1
- compound: "CCCCCCCCCCCCCCCCNc1ccccc1"
  experimental readout: "growth"
  unit tag: "%"
  value: 105
- compound: "COc1cc(NS(=O)(=O)c2ccc(N)cc2)ncn1"
  experimental readout: "growth"
  unit tag: "%"
  value: 114
- compound: "CC(=O)Cc1cccnc1"
  experimental readout: "growth"
  unit tag: "%"
  value: 108
- compound: "CCN(CC)C(=O)C1CCN(C(=O)c2ccccc2)CC1"
  experimental readout: "growth"
  unit tag: "%"
  value: 106
- compound: "O=C1/C(=C/c2cccc3cnccc23)Cc2cc(F)ccc21"
  experimental readout: "growth"
  unit tag: "%"
  value: 77
- compound: "O=[N+]([O-])c1ccccc1NC1c2ccccc2Oc2ccccc21"
  experimental readout: "growth"
  unit tag: "%"
  value: 98.7
- compound: "CC(C)CCC[C@@H](C)[C@H]1CC[C@H]2[C@@H]3CC=C4N(c5ccccc5)C(=O)CC[C@]4(C)[C@H]3CC[C@]12C"
  experimental readout: "growth"
  unit tag: "%"
  value: 103
- compound: "O=[N+]([O-])c1ccc(NS(=O)(=O)c2cc(Cl)ccc2Cl)c2ccccc12"
  experimental readout: "growth"
  unit tag: "%"
  value: 54
- compound: "CCOC(=O)c1[nH]c(-c2ccc(Cl)cc2)cc1-c1cccnc1"
  experimental readout: "growth"
  unit tag: "%"
  value: 51.1
- compound: "Clc1ccc(CN2COc3c(ccc4cccnc34)C2)cc1Cl"
  experimental readout: "growth"
  unit tag: "%"
  value: 11.6
- compound: "CCCOC(=O)c1ccc([N+](=O)[O-])o1"
  experimental readout: "growth"
  unit tag: "%"
  value: 95.1
- compound: "Cc1[nH]n(C(=O)c2ccncc2)c(=O)c1N=Nc1ccc(S(=O)(=O)Nc2ccncn2)cc1"
  experimental readout: "growth"
  unit tag: "%"
  value: 103
- compound: "CC1=C[S+](c2ccccc2)c2cccc3cc4ccccc4c1c23 (stereo unspecified)"
  experimental readout: "growth"
  unit tag: "%"
  value: 17.4
- compound: "COC(=O)c1oc2c(C(C)=O)c(OCCCN(C)C)ccc2c1C"
  experimental readout: "growth"
  unit tag: "%"
  value: 96.4
- compound: "C=C1C(=O)O[C@H]2[C@H]1CC/C(COC(=O)c1ccccc1)=C\\CC[C@@]1(C)O[C@@H]21"
  experimental readout: "growth"
  unit tag: "%"
  value: 5.21
- compound: "CCc1cccc(C)c1NC(=O)c1sc2nc3c(cc2c1N)CCCCC3"
  experimental readout: "growth"
  unit tag: "%"
  value: 63.9
- compound: "CCOc1cccc(Nc2nc(N)nc3[nH]c4ccc(O)cc4c23)c1"
  experimental readout: "growth"
  unit tag: "%"
  value: 66.3
- compound: "Nc1c(C(=O)O)[nH]c(=O)[nH]c1=O"
  experimental readout: "growth"
  unit tag: "%"
  value: 111
- compound: "Cc1cc(NCCN(C(C)C)C(C)C)nc(/N=C(\\N)Nc2ccc(Cl)c(C(F)(F)F)c2)n1"
  experimental readout: "growth"
  unit tag: "%"
  value: -68.2
- compound: "COc1ccc(-c2cnc(-c3ccc(F)cc3)[nH]2)cc1"
  experimental readout: "growth"
  unit tag: "%"
  value: 98.3
- compound: "COc1cc(NC(C)CCCN2C(=O)c3ccccc3C2=O)c2nc(C)ccc2c1OC (stereo unspecified)"
  experimental readout: "growth"
  unit tag: "%"
  value: 69.4
- compound: "Cc1ccc(-c2nc3c(N=Nc4ccc(S(N)(=O)=O)cc4)c(N)nn3c(N)c2C#N)cc1"
  experimental readout: "growth"
  unit tag: "%"
  value: 52.2
- compound: "O=[N+]([O-])c1cccc(C(c2ccccc2)c2ccccc2)c1"
  experimental readout: "growth"
  unit tag: "%"
  value: 98.2
- compound: "CS(=O)(=O)Nc1cccc(-c2ccc3ncnc(Nc4cncc(Cl)c4)c3c2)c1"
  experimental readout: "growth"
  unit tag: "%"
  value: 50.9
- compound: "COC1OCC(OS(=O)(=O)c2ccc(C)cc2)C(OC(=O)c2ccccc2)C1OC(=O)c1ccccc1 (stereo unspecified)"
  experimental readout: "growth"
  unit tag: "%"
  value: 57
- compound: "N#CC(C#N)=C(C#N)c1c[nH]c2ccccc12"
  experimental readout: "growth"
  unit tag: "%"
  value: 73.5
